Target: Genome polyprotein (Hepatitis C virus genotype 1a (isolate 1) (HCV), UniProt P26664)
Sequence (P26664 2421-3011 limits assumed): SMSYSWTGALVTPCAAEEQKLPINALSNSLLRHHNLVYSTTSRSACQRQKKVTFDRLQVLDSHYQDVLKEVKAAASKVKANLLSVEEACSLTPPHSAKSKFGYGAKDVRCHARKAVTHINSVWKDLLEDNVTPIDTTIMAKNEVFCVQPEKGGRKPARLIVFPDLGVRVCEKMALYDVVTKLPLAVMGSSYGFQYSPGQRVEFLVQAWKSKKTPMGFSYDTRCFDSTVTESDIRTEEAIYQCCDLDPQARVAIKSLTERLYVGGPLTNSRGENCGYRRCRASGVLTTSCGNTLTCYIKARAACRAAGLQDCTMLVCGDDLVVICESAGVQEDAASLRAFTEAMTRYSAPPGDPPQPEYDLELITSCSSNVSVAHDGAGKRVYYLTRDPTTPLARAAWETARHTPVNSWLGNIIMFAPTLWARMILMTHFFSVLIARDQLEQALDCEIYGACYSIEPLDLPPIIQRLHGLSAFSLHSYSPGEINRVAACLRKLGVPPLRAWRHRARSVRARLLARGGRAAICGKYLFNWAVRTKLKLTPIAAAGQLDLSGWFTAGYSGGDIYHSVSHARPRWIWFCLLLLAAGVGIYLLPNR
Experiment: Inhibition of Hepatitis C RNA dependent RNA polymerase Nonstructural protein 5B activity.
measurement_type: IC50 (µM)

Example results:
{"columns": ["smiles_notation", "measurement_type", "test_result"],
 "data": [
  ["Cc1ccc(C(=O)N(Cc2cccc(Br)c2)[C@@H](Cc2ccccc2)C(=O)O)c(C)c1", "IC50", 5.9],
  ["O=C(O)[C@H](Cc1ccccc1)N(Cc1cccc(Br)c1)C(=O)c1ccc(Cl)cc1I", "IC50", 2.7],
  ["O=C(O)[C@H](Cc1ccccc1)N(Cc1cccc(Br)c1)C(=O)c1ccc(Cl)c(Cl)c1", "IC50", 30],
  ["O=C(O)[C@H](Cc1ccccc1)N(Cc1cccc(Br)c1)S(=O)(=O)c1ccc(Cl)cc1Cl", "IC50", 31],
  ["O=C(O)[C@H](Cc1ccccc1)N(Cc1cccc(Br)c1)C(=O)c1ccc(Cl)cc1", "IC50", 10.6]
]}

I = O=C(O)[C@H](Cc1ccccc1)N(Cc1cccc(Br)c1)C(=O)Nc1ccc(Cl)cc1Cl
II = O=C(O)[C@H](Cc1ccccc1)N(Cc1cccc(Br)c1)c1ccc(Cl)cc1Cl
III = Cc1cc(Cl)ccc1C(=O)N(Cc1cccc(Br)c1)[C@@H](Cc1ccccc1)C(=O)O
IV = CCc1cc(Cl)ccc1C(=O)N(Cc1cccc(Br)c1)[C@@H](Cc1ccccc1)C(=O)O
Qu. // smallest IC50 at index 0, largest at the end Your task in answering is to list the labels in the requested order.
Ans. III, IV, II, I
